Can you tell me PI3Ka IC50 for the items I'm about to list?
target: PI3Kα (p110α/p85α) (Homo sapiens (Human), UniProt P42336); assay: PI3Kα enzymatic test by measuring the consumption of ATP; assay type: biochemical
Sequence (P42336 whole entry): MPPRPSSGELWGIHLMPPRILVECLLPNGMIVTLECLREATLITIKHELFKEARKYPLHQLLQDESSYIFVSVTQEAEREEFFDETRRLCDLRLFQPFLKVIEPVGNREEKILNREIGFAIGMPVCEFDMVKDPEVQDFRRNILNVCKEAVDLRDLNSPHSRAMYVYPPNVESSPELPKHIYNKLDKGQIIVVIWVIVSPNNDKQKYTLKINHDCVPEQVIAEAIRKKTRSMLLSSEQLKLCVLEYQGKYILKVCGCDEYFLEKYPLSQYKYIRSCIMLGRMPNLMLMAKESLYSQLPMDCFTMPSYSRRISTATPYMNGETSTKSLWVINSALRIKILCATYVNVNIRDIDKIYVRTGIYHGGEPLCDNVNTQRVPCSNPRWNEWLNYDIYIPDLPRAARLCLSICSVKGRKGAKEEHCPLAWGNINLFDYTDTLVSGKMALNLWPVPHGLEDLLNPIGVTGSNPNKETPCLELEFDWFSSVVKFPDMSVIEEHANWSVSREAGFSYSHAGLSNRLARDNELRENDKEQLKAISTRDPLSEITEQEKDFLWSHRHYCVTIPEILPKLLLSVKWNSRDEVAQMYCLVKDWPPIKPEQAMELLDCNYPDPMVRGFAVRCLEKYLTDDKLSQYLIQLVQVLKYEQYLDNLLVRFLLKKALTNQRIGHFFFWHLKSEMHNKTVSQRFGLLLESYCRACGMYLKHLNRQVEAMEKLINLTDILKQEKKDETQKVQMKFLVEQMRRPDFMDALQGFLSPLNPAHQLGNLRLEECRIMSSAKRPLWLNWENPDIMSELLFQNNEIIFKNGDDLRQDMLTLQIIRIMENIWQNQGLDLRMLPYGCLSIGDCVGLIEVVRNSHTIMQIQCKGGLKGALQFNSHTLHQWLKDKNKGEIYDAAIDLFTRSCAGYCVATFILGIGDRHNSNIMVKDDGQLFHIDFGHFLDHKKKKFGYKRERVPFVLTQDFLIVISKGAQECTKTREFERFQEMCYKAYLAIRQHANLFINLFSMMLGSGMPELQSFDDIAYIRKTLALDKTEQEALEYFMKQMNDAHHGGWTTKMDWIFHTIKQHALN
Sequence (P27986 whole entry partner): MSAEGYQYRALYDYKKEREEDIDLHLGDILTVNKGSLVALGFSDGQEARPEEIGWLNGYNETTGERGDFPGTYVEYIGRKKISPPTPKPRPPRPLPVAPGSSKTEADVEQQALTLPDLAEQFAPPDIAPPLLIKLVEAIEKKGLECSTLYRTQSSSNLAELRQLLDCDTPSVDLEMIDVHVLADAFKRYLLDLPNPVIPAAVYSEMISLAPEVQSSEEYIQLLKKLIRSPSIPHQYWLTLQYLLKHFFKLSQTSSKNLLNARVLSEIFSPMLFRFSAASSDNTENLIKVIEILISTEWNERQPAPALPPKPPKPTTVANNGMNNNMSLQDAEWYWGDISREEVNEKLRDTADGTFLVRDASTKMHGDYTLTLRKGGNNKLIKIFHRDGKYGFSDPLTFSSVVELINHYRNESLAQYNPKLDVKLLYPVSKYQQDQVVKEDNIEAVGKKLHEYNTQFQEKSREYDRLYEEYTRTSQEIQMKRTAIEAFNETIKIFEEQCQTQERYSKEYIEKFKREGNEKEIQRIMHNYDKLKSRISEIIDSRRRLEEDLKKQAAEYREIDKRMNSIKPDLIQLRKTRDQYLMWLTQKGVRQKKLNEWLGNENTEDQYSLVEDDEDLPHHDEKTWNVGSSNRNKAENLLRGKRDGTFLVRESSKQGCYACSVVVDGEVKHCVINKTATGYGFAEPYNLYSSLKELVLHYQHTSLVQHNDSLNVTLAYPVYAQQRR

Study these solved cases before continuing.
compound	PI3Ka IC50
CCN1CC(C)(C)Oc2nc(N3CC4CCC(C3)O4)nc(-c3ccc(NC(=O)Nc4ccc(N5CCN(S(C)(=O)=O)CC5)cc4)c(F)c3)c2C1=O [Example 235]	>7.2 µM
CCN1CC(C)(C)Oc2nc(N3CC4CCC(C3)O4)nc(-c3ccc(NC(=O)Nc4ccc(N5CCN(C(=O)OC)CC5)cc4)c(F)c3)c2C1=O [Example 236]	>7.2 µM
CN1CC(C)(C)Oc2nc(N3CC4CCC(C3)O4)nc(-c3ccc(NC(=O)Nc4ccccn4)cc3)c2C1=O [Example 39]	5.87 µM
CC1(C)CN(C2CCOCC2)C(=O)c2c(nc(N3CC4CCC(C3)O4)nc2-c2ccc(NC(=O)Nc3ccon3)cc2)O1 [Example 157]	>10 µM
CCN1CC(C)(C)Oc2nc(N3CCOC[C@@H]3C)nc(-c3ccc(NC(=O)Nc4cnc(N5CCOCC5)cn4)cc3)c2C1=O [Example 232]	5.63 µM

Hey, quick one: what's PI3Ka IC50 for each of these?
1. CCN1CC(C)(C)Oc2nc(N3C[C@@H]4C[C@H]3CO4)nc(-c3ccc(NC(=O)NC)c(F)c3)c2C1=O [Example 206]
2. CCN1CC(C)(C)Oc2nc(N3C4CCC3COC4)nc(-c3ccc(NC(=O)Nc4ccccn4)cc3)c2C1=O [Example 63]
3. CCN1CC(C)(C)Oc2nc(N3CC4CCC(C3)O4)nc(-c3ccc(NC(=O)Nc4ccc(N5CCS(=O)(=O)CC5)cc4)c(F)c3)c2C1=O [Example 237]
4. Cc1ccc(NC(=O)Nc2ccc(-c3nc(N4CC5CCC(C4)O5)nc4c3C(=O)N(C)CC(C)(C)O4)cc2)nc1 [Example 42]
5. COCCN1CC(C)(C)Oc2nc(N3CCOC[C@@H]3C)nc(-c3ccc(NC(=O)Nc4cnn(C)c4)cc3)c2C1=O [Example 201]
6. CCN1CC(C)(C)Oc2nc(N3CCOC[C@@H]3C)nc(-c3ccc(NC(=O)Nc4ccc(C(=O)N5CCC(N(C)C)CC5)cc4)cc3)c2C1=O [Example 23]
7. CCN1CC(C)(C)Oc2nc(N3CC4CCC(C3)O4)nc(-c3ccc(NC(=O)O[C@H](C)CO)c(F)c3)c2C1=O [Example 62]
8. CCN1CC(C)(C)Oc2nc(N3CC4CCC(C3)O4)nc(-c3ccc(NC(=O)Nc4ccon4)c(F)c3)c2C1=O [Example 135]

[A]
>10 µM
>10 µM
>7.2 µM
>10 µM
0.813 µM
0.079 µM
>10 µM
6.525 µM

----------
Can you tell me pIC50 for the items I'm about to list?
system: U87MG tumour cells; assay: Test of in vitro proliferation of U87MG tumour cells; type: cell-based; conditions: Homo sapiens, U-87 MG, 72 h, U87MG cells, 72 hours; read-out: U87 Cell Proliferation IC50
One number for each entry, as −log10 of the molar value.

Study these solved cases before continuing.
CC1(C)CN(C2CCOCC2)C(=O)c2c(nc(N3CC4CCC(C3)O4)nc2-c2ccc(NC(=O)Nc3ccon3)c(F)c2)O1 6.46
CCN1CC(C)(C)Oc2nc(N3CC4CCC(C3)O4)nc(-c3ccc(NC(=O)Nc4ccnc(N5CCN(S(C)(=O)=O)CC5)c4)c(F)c3)c2C1=O 6.82

Hey, quick one: what's pIC50 for each of these?
1. CCN1CC(C)(C)Oc2nc(N3CC4CCC(C3)O4)nc(-c3ccc(NC(=O)Nc4ccc(OC)nn4)cc3)c2C1=O
2. CCN1CC(C)(C)Oc2nc(N3CC4CCC(C3)O4)nc(-c3ccc(NC(=O)Nc4ccc(N5CCCCC5)nc4)c(F)c3)c2C1=O

[A]
[6.36, 7.46]
